// provenance: ChEMBL document CHEMBL5380831

# Measurement Notes: Cmax in Kunming mouse at 10 mg/kg, iv measured upto 24 hrs by LC-MS analysis
# Assay type: ADME, organism-based
# Design: dose 10 mg/kg, time < 24 hrs, route iv
# Condition Context: in vivo
Recorded Endpoint: Cmax (ng/mL)
Lab book: enter the figure in ng/mL, no units written.

Looking up OCCN(CCO)c1nccc(-n2cncn2)n1 , I see its Cmax listed as 1990

====

# Test system: Enterococcus faecalis
# Measurement Notes: Antibacterial activity against Enterococcus faecalis assessed as bacterial growth inhibition incubated for 24 hrs by broth microdilution method
# Format: functional
Recorded Endpoint: MIC (µM)
Numbers only here, please. The scale is µM.

Use these answered entries as a reference point.
- Structure Smiles String: "Cc1ncc([N+](=O)[O-])n1-c1ccnc(N(CCO)CCO)n1"
  MIC [µM]: 406
- Structure Smiles String: "Clc1ccc2c3ccccc3n(-c3nccc(-n4cncn4)n3)c2c1"
  MIC [µM]: 185
- Structure Smiles String: "Cc1cn(-c2nccc(N(CCO)CCO)n2)c(C)n1"
  MIC [µM]: 58
- Structure Smiles String: "CCc1nccn1-c1ccnc(N(CCO)CCO)n1"
  MIC [µM]: 924
- Structure Smiles String: "O=[N+]([O-])c1cn(-c2ccnc(N(CCO)CCO)n2)cn1"
  MIC [µM]: 870

Form field MIC for item Brc1ccc2c3ccccc3n(-c3nccc(-n4cncn4)n3)c2c1 on Enterococcus faecalis: 164

For the compound CN(CCO)c1nccc(-n2cncn2)n1 , the measured MIC on Enterococcus faecalis was 582

Tested on Enterococcus faecalis, the item CO/N=C(/C(=O)N1CCN(c2nccc(-n3cncn3)n2)CC1)c1csc(N)n1 showed MIC equal to 294

Form field, MIC with Enterococcus faecalis, item O=C(CCCCl)N1CCN(c2nccc(-n3cncn3)n2)CC1 : 382

// compound CCCc1nccn1-c1ccnc(N(CCO)CCO)n1 , assay Enterococcus faecalis, MIC value: 879

The reported MIC value, Enterococcus faecalis, for OCCN(CCO)c1nccc(-n2cnnn2)n1 reads 1020

Lab entry: Enterococcus faecalis assay, compound O=C1c2cccc3c(N4CCN(c5nccc(-n6cncn6)n5)CC4)ccc(c23)C(=O)N1C(CO)CO , MIC = 256

====

# Tested on: Staphylococcus aureus
# Measurement Notes: Antibacterial activity against methicillin-resistant Staphylococcus aureus assessed as bacterial growth inhibition incubated for 24 hrs by broth microdilution method
# Format: functional
The reader will find reported MIC values listed item by item below.
# value in µM; strip the unit string

Illustrative cases are given below, each with its answer.
- Structure Smiles String: "CC(=O)Nc1ccc(S(=O)(=O)N2CCN(c3nccc(-n4cncn4)n3)CC2)cc1"
  MIC, µM: 598
- Structure Smiles String: "CCn1cc(C(=O)O)c(=O)c2cc(F)c(N3CCNCC3)cc21"
  MIC, µM: 50

So, O=C(CCCCl)N1CCN(c2nccc(-n3cncn3)n2)CC1 ? Its MIC was 382

Record O=c1ccc2c(CN3CCN(c4nccc(-n5cncn5)n4)CC3)cc(O)cc2o1 , field MIC: 316

// recorded MIC for CC(=O)N1CCN(c2nccc(-n3cncn3)n2)CC1 : 469

Measured MIC, CC(C)c1nccn1-c1nccc(N(CCO)CCO)n1 : 1760

The measured MIC associated with O=C(CCl)N1CCN(c2nccc(-n3cncn3)n2)CC1 reads 104

Reported MIC of Cc1cc2ncn(-c3ccnc(N(CCO)CCO)n3)c2cc1C : 391

What the record says about O=C1c2cccc3c(N4CCN(c5nccc(-n6cncn6)n5)CC4)ccc(c23)C(=O)N1C(CO)CO : MIC is 512

Given item O=C1c2cccc3c(N4CCN(c5nccc(-n6cncn6)n5)CC4)ccc(c23)C(=O)N1CCO , the value recorded as its MIC is 545

Lab book: MIC of Cc1cn(-c2nccc(N(CCO)CCO)n2)cn1 noted as 973

Given item O=C(c1ccccc1)N1CCN(c2nccc(-n3cncn3)n2)CC1 , the value recorded as its MIC is 764

Recorded MIC (compound Cc1cn(-c2nccc(N(CCO)CCO)n2)c(C)n1 ): 924

MIC reading for Cc1nc2ccccc2n1-c1ccnc(N(CCO)CCO)n1 : 204

Per the records, this compound ( CN(CCO)c1nccc(-n2cncn2)n1 ) has MIC equal to 1160

Record OCCN(CCO)c1ccnc(-n2ccnc2-c2ccccc2)n1 . Reported MIC: 1580

// Brc1ccc2c3ccccc3n(-c3nccc(-n4cncn4)n3)c2c1 : MIC value = 656

The compound identified as OCCN(CCO)c1nccc(-n2ccnc2)n1 registered its MIC at 1030

According to the records, this compound Cc1ncc([N+](=O)[O-])n1-c1nccc(N(CCO)CCO)n1 displays MIC of 831

Consider OCCN(CCO)c1nccc(-n2cnnn2)n1 . Its measured MIC is 2040

The recorded MIC for entry CCN(CCO)c1nccc(-n2cncn2)n1 equals 1090

For reference, reported MIC for Cc1ncc([N+](=O)[O-])n1-c1ccnc(N(CCO)CCO)n1 stands at 831

Sample Cc1cn(-c2ccnc(N(CCO)CCO)n2)cn1 ; MIC observed: 973

Noted for CC(C)N(c1nccc(-n2cncn2)n1)C(C)C : its MIC reads 520
